# System name: cyno B7-H3
# Sequence (as listed by the source): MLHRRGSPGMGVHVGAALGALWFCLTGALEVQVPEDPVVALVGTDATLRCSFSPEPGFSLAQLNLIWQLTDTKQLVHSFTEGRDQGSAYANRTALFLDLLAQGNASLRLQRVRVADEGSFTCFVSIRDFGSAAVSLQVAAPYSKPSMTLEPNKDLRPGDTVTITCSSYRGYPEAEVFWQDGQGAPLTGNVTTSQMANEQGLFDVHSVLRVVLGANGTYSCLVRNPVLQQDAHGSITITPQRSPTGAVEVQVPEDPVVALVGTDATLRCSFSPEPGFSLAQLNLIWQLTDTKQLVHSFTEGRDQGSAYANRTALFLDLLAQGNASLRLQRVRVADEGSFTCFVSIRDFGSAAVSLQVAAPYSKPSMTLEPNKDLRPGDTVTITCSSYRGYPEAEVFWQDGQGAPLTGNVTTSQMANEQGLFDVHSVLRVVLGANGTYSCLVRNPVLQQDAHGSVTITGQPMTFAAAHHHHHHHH
# Procedure summary: Biacore T200 SPR binding kinetics, mAb capture, soluble ECD of cyno B7-H3
# Parameters: species or system cynomolgus monkey
# Measurement parameters: 1:1 binding model

{"Molecule": "Ab3: murine anti-B7-H3 mAbs; mouse hybridoma derived (antibody, V domains shown) VH: QVQLQQPGAELVKPGASVKLSCKASGYTFSSYWMHWVKQRPGQGLEWIGLIHPDSGSTNYNEMFKNKATLTVDRSSSTAYVQLSSLTSEDSAVYFCAGGGRLYFDYWGQGTTLTVSS VL: DVVMTQTPLSLPVSLGDQASISCRSSQSLVHSNGDTYLRWYLQKPGQSPKLLIYKVSNRFSGVPDRFSGSGSGTDFTLKITRVEAEDLGVYFCSQSTHVPYTFGGGTKLEIK", "Units": "s⁻¹", "kd (1/s) cynoB7-H3": 0.01}
{"Molecule": "Ab13: mouse hybridoma derived anti-B7-H3 monoclonal antibodies (mAbs) (antibody, V domains shown) VH: DVQLQESGPDLVKPSQSLSLTCTVTGYSITSGYSWHWIRQFPGNKLEWMGYIHSSGSTNYNPSLKSRISINRDTSKNQFFLQLNSVTTEDTATYYCAGYDDYFEYWGQGTTLTVSS VL: DIVMTQSQKFMSTSVGDRVSVTCKASQNVGFNVAWYQQKPGQSPKALIYSASYRYSGVPDRFTGSGSGTDFTLTISNVQSEDLAEYFCQQYNSYPFTFGSGTKLEIK", "Units": "s⁻¹", "kd (1/s) cynoB7-H3": 0.0037}

Numbers sourced from patent US20200338209A1.
